- TARGET ENTITY: Hepatic sodium/bile acid cotransporter (Homo sapiens, UniProt Q14973)
- Sequence (Q14973 whole entry): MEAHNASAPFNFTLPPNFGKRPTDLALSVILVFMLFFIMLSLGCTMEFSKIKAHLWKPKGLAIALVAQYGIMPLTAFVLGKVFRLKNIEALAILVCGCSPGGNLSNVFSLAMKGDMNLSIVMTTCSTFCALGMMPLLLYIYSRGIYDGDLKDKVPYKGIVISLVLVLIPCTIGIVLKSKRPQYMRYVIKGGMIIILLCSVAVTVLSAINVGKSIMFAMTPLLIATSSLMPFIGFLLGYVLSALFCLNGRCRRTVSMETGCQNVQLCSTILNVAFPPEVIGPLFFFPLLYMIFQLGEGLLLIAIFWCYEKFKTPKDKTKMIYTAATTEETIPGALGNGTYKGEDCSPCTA
- MEASUREMENT NOTES: Inhibition of FITC-labeled HBV Pre-S1 polypeptide binding to human NTCP expressed in HepG2 cells after 2 to 3 hrs by confocal microscopic analysis
- Format: cell-based
- APPLIED CONDITIONS: time 2-3 hrs
OUTCOME MEASURE: inhibition (INH)

[[record]]
compound_smiles = "C[C@H](CCC(=O)NCCS(=O)(=O)O)[C@H]1CC[C@H]2[C@@H]3[C@@H](O)C[C@@H]4C[C@H](OCc5cn([C@@H]6CC[C@@]7(C)[C@@H](C6)C[C@H](O)[C@@H]6[C@@H]7CC[C@]7(C)[C@@H]([C@H](C)CCC(=O)NCCS(=O)(=O)O)CC[C@@H]67)nn5)CC[C@]4(C)[C@H]3CC[C@]12C"
measurement = "Active"

[[record]]
compound_smiles = "C[C@H](CCCN(CC[C@@H](C)[C@H]1CC[C@H]2[C@@H]3[C@@H](O)C[C@@H]4C[C@H](O)CC[C@]4(C)[C@H]3CC[C@]12C)CCS(=O)(=O)O)[C@H]1CC[C@H]2[C@@H]3[C@@H](O)C[C@@H]4C[C@H](O)CC[C@]4(C)[C@H]3CC[C@]12C"
measurement = "Active"

[[record]]
compound_smiles = "C[C@@H]1CCC(=O)NCCNC(=O)CC[C@@H](C)[C@H]2CC[C@H]3[C@@H]4[C@@H](O)C[C@@H]5C[C@@H](CC[C@]5(C)[C@H]4CC[C@]23C)NC(=O)CCCC(=O)N[C@@H]2CC[C@@]3(C)[C@@H](C2)C[C@H](O)[C@@H]2[C@@H]3CC[C@]3(C)[C@@H]1CC[C@@H]23"
measurement = "Active"

[[record]]
compound_smiles = "C[C@H](CCC(=O)NCCS(=O)(=O)O)[C@H]1CC[C@H]2[C@@H]3[C@@H](O)C[C@@H]4C[C@H](OC(=O)CCCC(=O)O[C@@H]5CC[C@@]6(C)[C@@H](C5)C[C@H](O)[C@@H]5[C@@H]6CC[C@]6(C)[C@@H]([C@H](C)CCC(=O)NCCS(=O)(=O)O)CC[C@@H]56)CC[C@]4(C)[C@H]3CC[C@]12C"
measurement = "Active"

[[record]]
compound_smiles = "C[C@H](CCC(=O)O[C@@H]1CC[C@@]2(C)[C@@H](C1)C[C@H](O)[C@@H]1[C@@H]2CC[C@]2(C)[C@@H]([C@H](C)CCC(=O)NCCS(=O)(=O)O)CC[C@@H]12)[C@H]1CC[C@H]2[C@@H]3[C@@H](O)C[C@@H]4C[C@H](O)CC[C@]4(C)[C@H]3CC[C@]12C"
measurement = "Active"


What value of inhibition (INH) has been reported for the following compound? `C[C@H](CCC(=O)NCCS(=O)(=O)O)[C@H]1CC[C@H]2[C@@H]3[C@@H](O)C[C@@H]4C[C@H](NC(=O)CCCC(=O)N[C@@H]5CC[C@@]6(C)[C@@H](C5)C[C@H](O)[C@@H]5[C@@H]6CC[C@]6(C)[C@@H]([C@H](C)CCC(=O)NCCS(=O)(=O)O)CC[C@@H]56)CC[C@]4(C)[C@H]3CC[C@]12C`
Active

* * *

IC50 values for the molecules below.
- TARGET ENTITY: Hepatic sodium/bile acid cotransporter (Homo sapiens, UniProt Q14973)
- MEASUREMENT NOTES: Inhibition of human NTCP-mediated [3H]-TCA uptake expressed in human HepG2 cells pretreated for 2 hrs followed by [3H]-TCA addition in absence of FBS
- Assay type: cell-based
Dear colleague, please return just the value in nM, with no unit written.

Use the examples below as a reference point.
[[record]]
molecule = "C[C@H](CCC(=O)N[C@@H]1CC[C@@]2(C)[C@@H](C1)C[C@H](O)[C@@H]1[C@@H]2CC[C@]2(C)[C@@H]([C@H](C)CCC(=O)NCCS(=O)(=O)O)CC[C@@H]12)[C@H]1CC[C@H]2[C@@H]3[C@@H](O)C[C@@H]4C[C@H](O)CC[C@]4(C)[C@H]3CC[C@]12C"
target_entity = "Hepatic sodium/bile acid cotransporter (Homo sapiens, UniProt Q14973)"
measurement = 0.3

[[record]]
molecule = "C[C@@H]1CCC(=O)NC(C(=O)O)CNC(=O)CC[C@@H](C)[C@H]2CC[C@H]3[C@@H]4[C@@H](O)C[C@@H]5C[C@@H](CC[C@]5(C)[C@H]4CC[C@]23C)n2cc(nn2)CO[C@@H]2CC[C@@]3(C)[C@@H](C2)C[C@H](O)[C@@H]2[C@@H]3CC[C@]3(C)[C@@H]1CC[C@@H]23 (stereo partly drawn)"
target_entity = "Hepatic sodium/bile acid cotransporter (Homo sapiens, UniProt Q14973)"
measurement = 17.9


Consider the molecule `C[C@H](CCC(=O)O[C@@H]1CC[C@@]2(C)[C@@H](C1)C[C@H](O)[C@@H]1[C@@H]2CC[C@]2(C)[C@@H]([C@H](C)CCC(=O)NCCS(=O)(=O)O)CC[C@@H]12)[C@H]1CC[C@H]2[C@@H]3[C@@H](O)C[C@@H]4C[C@H](O)CC[C@]4(C)[C@H]3CC[C@]12C` and give its measured IC50.
36.2
